# measurementTarget: Hsp82 (Saccharomyces cerevisiae, UniProt P02829)
# Sequence (P02829 whole entry): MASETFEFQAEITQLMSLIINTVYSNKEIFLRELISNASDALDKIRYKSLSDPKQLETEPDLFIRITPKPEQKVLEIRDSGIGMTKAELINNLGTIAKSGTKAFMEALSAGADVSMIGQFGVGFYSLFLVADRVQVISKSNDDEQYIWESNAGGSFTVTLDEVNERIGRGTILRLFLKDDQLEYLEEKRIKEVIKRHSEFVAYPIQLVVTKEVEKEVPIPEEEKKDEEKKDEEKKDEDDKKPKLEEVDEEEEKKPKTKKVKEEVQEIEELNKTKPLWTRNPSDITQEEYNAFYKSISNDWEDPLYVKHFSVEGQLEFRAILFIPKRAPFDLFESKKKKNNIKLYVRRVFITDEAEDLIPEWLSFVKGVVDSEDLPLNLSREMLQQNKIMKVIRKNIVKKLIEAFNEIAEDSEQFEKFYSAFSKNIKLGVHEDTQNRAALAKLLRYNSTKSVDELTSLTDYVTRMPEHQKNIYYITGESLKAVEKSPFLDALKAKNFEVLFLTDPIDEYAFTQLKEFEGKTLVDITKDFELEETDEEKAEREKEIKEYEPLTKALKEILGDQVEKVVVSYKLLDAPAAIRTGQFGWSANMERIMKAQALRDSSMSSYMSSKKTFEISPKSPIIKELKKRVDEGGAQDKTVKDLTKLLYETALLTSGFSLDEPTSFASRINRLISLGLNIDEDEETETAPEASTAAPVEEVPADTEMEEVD
# testMethodNotes: Hsp82 ATPase activity inhibition (malachite green inorganic phosphate method, or PK/LDH coupled method)
# Format: biochemical
assayReadout: IC50

Which IC50 is reported for this compound? Oc1ccc(-c2noc3ccccc23)c(O)c1 [Example 1]
1 to 10 µM

* * *

As shown below, each of these compounds has a reported pIC50 value.
# measurementTarget: Hsp82 (Saccharomyces cerevisiae)
# testMethodNotes: Hsp82 ATPase activity inhibition (malachite green inorganic phosphate method, or PK/LDH coupled method)
# Format: biochemical
# experimentalConditions: inhibition of ATPase activity of Hsp82; 1 μM Hsp82, 250 μM ATP, 37° C.; read-out: IC50
pIC50: −log10 of the molar value.

Below, each entry is followed by its recorded pIC50 result.
[[record]]
substancesmiles = "Cc1ccc(NCc2cc(-c3noc4ccccc34)c(O)cc2O)cc1C"
measurementtarget = "Hsp82 (Saccharomyces cerevisiae)"
result = "> 6.00"

[[record]]
substancesmiles = "O=C(Cc1ccccc1)c1cc(-c2noc3ccccc23)c(O)cc1O"
measurementtarget = "Hsp82 (Saccharomyces cerevisiae)"
result = "4.00 to 5.00"

[[record]]
substancesmiles = "Oc1cc(O)c(-c2noc3ccccc23)cc1CNc1ccccc1"
measurementtarget = "Hsp82 (Saccharomyces cerevisiae)"
result = "5.00 to 6.00"


Which pIC50 is reported for this compound? `O=C(NCc1ccccc1)c1cc(-c2noc3ccccc23)c(O)cc1O`
4.00 to 5.00

Which pIC50 is reported for this compound? `Oc1cc(O)c(-c2noc3ccccc23)cc1CCc1ccccc1`
5.00 to 6.00

Which pIC50 is reported for this compound? `Oc1cc(O)c(-c2noc3ccccc23)cc1Br`
5.00 to 6.00

Which pIC50 is reported for this compound? `Oc1cc(O)c(-c2noc3ccccc23)cc1CNc1ccc(Cl)c(Cl)c1`
5.00 to 6.00

Which pIC50 is reported for this compound? `COc1cc(O)c(-c2noc3ccccc23)cc1CNc1ccc(C)c(C)c1`
4.00 to 5.00

Which pIC50 is reported for this compound? `Oc1cc(O)c(-c2noc3ccccc23)cc1/C=N/c1ccc(Cl)c(Cl)c1`
5.00 to 6.00

Which pIC50 is reported for this compound? `COC(=O)c1cc(-c2noc3ccccc23)c(O)cc1O`
4.00 to 5.00

Which pIC50 is reported for this compound? `CCc1cc(-c2noc3ccccc23)c(O)cc1O`
5.00 to 6.00
